Outcome measure: melting point (°C)
Give just the numeric value; °C need not be written.

Use the examples below as a reference point.
COCCOc1ccncc1Nc1nccc(-c2cc(C#N)c3c(c2)[C@@](C)(CO)CN3)n1 ... 215
COc1ncccc1Nc1nccc(-c2cc(C#N)c3c(c2)C(C)(CNCCS(C)(=O)=O)CN3)n1 (centres unmarked) ... 146
COc1ncc(Cl)cc1Nc1nccc(-c2cc(C#N)c3c(c2)C(C)(COCCN2CCCC2)CN3)n1 (centres unmarked) ... 152

The recorded melting point for entry CC(C)OCCOc1ncccc1Nc1nccc(-c2cc(C#N)c3c(c2)[C@@](C)(CO)CN3)n1 equals 154

* * *

Target: recombinant human NF-kappaB-inducing Kinase (NIK/MAP3K14) (Homo sapiens, UniProt Q99558)
Sequence (Q99558 whole entry): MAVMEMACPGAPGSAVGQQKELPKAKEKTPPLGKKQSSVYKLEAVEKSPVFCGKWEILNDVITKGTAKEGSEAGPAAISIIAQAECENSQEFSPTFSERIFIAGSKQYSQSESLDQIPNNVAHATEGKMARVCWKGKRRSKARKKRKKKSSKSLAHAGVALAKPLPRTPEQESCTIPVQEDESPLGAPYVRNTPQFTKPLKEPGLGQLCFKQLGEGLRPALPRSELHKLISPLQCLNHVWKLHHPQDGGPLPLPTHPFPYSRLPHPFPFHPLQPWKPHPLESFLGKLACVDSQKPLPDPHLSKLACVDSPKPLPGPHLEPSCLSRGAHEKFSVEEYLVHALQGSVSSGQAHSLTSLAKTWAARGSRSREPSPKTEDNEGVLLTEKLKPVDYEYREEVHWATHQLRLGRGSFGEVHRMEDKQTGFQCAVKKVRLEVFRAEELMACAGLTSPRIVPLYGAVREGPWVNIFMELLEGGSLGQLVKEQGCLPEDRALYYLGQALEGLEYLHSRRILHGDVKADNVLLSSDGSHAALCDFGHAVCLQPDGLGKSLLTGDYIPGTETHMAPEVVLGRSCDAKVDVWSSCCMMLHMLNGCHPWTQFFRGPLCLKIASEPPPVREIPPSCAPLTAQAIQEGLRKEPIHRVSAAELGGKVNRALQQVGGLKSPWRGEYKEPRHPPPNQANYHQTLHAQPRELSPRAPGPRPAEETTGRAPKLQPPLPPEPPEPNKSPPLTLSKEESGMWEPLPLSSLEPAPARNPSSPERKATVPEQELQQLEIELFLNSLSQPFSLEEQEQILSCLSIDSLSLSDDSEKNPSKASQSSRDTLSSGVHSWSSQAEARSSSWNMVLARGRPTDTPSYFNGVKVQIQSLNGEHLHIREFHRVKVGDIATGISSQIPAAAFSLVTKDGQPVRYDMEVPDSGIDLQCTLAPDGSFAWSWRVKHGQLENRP
Assay: Inhibition of auto-phosphorylation of recombinant human NIK/MAP3K14 activity (AlphaScreen)
Type: biochemical
Conditions: 25 microM ATP, averaged over all measurements on all batches
Outcome measure: IC50
Please format your answer as a value with the unit trailing.

COc1ncccc1Nc1nccc(-c2cc(C#N)c3c(c2)[C@](C)(CO)CN3)n1 [Compound 7] ... 15.5 nM
Cc1cc(Nc2nccc(-c3cc(C#N)c4c(c3)[C@@](C)(CO)CN4)n2)c(=O)n(CCN2CC(C)OC(C)C2)c1 (stereo partly shown) [Compound 2i] ... 1.8 nM
CC(C)(CO)Oc1ncc(C#N)cc1Nc1nccc(-c2cc(C#N)c3c(c2)[C@@](C)(CO)CN3)n1 [Compound 78] ... 4.7 nM
CC(C)Oc1nc(P(C)(C)=O)ccc1Nc1nccc(-c2cc(C#N)c3c(c2)[C@@](C)(CO)CN3)n1 [Compound 57] ... 4.3 nM
Cc1cc(Nc2nccc(-c3cc(C#N)c4c(c3)[C@@](C)(CO)CN4)n2)c(OC(C)C)nc1CCN1CC(F)C1 [Compound 157] ... 9.3 nM

The recorded IC50 for entry COCCn1cc(Cl)cc(Nc2nccc(-c3cc(C#N)c4c(c3)[C@@](C)(CO)CN4)n2)c1=O [Compound 14i] equals 1.4 nM

The recorded IC50 for entry C[C@]1(CO)CNc2c(C#N)cc(-c3ccnc(Nc4cc(C#N)cnc4OCC4CC4)n3)cc21 [Compound 74] equals 16.2 nM

* * *

Molecular target: recombinant human NF-kappaB-inducing Kinase (NIK/MAP3K14) (Homo sapiens, UniProt Q99558)
Assay: Inhibition of auto-phosphorylation of recombinant human NIK/MAP3K14 activity (AlphaScreen)
Format: biochemical
Settings: 25 microM ATP, averaged over all measurements on all batches
Outcome measure: IC50
Please format your answer as a value with the unit trailing.

Use the examples below as a reference point.
COCCOc1nc(C2CCOCC2)ncc1Nc1nccc(-c2cc(C#N)c3c(c2)[C@@](C)(CO)CN3)n1 ... 18.6 nM
CNC(=O)c1cc(Nc2nccc(-c3cc(C#N)c4c(c3)[C@@](C)(CO)CN4)n2)c(C)cn1 ... 1.3 nM
Cc1cc(Nc2nccc(-c3cc(C#N)c4c(c3)C(C)(CO)CN4)n2)nc(C)n1 (stereo not shown) ... 4.5 nM
CCCCc1ncc(C#N)cc1Nc1nccc(-c2cc(C#N)c3c(c2)[C@@](C)(CO)CN3)n1 ... 3.3 nM
Cc1cc(Nc2nccc(-c3cc(C#N)c4c(c3)[C@@](C)(CO)CN4)n2)c(C)nc1OC1CCOCC1 ... 6.5 nM
Cc1cc(Nc2nccc(-c3cc(C#N)c4c(c3)[C@@](C)(CO)CN4)n2)c(=O)n(CCN2CC(C)NC(C)C2)c1 (stereo partly shown) [Compound 16i] ... 1.2 nM
Cc1ncc(CO)cc1Nc1nccc(-c2cc(C#N)c3c(c2)[C@@](C)(CO)CN3)n1 ... 2.7 nM
C[C@]1(CO)CNc2c(C#N)cc(-c3ccnc(Nc4cccnc4O[C@@H]4CCCOC4)n3)cc21 ... 3.6 nM

The recorded IC50 for entry COc1ncc(Cl)cc1Nc1nccc(-c2cc(C#N)c3c(c2)[C@](C)(COC(=O)[C@H](C)N)CN3)n1 equals 38 nM

The recorded IC50 for entry Cc1cc(Nc2nccc(-c3cc(C#N)c4c(c3)[C@@](C)(CO)CN4)n2)c(=O)n(CCN2CC(F)C2)c1 equals 1.1 nM

The recorded IC50 for entry Cc1cnc(OC2CCN(C)CC2F)c(Nc2nccc(-c3cc(C#N)c4c(c3)[C@@](C)(CO)CN4)n2)c1 (stereo partly shown) [Compound 155] equals 12 nM

The recorded IC50 for entry COc1ncc(F)cc1Nc1nccc(-c2cc(C#N)c3c(c2)[C@@](C)(CO)CN3)n1 equals 3.3 nM

The recorded IC50 for entry Cc1cnc(OCC2(C)COC2)c(Nc2nccc(-c3cc(C#N)c4c(c3)[C@@](C)(CO)CN4)n2)c1 equals 7.9 nM
